System tested: T1, glucose-dependent insulinotropic peptide (gastric inhibitory polypeptide) receptor (GIPR), primary cAMP assay … (human, UniProt P48546 22-466)
T1 sequence (looked up): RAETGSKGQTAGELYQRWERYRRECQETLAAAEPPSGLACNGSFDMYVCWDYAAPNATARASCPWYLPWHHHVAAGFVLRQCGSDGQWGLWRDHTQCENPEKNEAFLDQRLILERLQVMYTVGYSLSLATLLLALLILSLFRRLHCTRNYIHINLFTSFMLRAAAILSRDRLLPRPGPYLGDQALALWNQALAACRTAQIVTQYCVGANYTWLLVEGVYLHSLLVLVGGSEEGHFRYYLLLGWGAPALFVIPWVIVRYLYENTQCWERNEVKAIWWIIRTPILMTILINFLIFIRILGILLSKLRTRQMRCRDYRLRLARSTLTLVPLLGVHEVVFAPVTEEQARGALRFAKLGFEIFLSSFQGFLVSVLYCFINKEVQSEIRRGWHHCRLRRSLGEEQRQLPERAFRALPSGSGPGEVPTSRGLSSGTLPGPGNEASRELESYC
Assay explanation: cell-based or functional assay
Starred links: 1 amine or outer side, 2 acyl side, 3 side chain; linkers in the order of their positions; H or OH if unused. Non-standard residues stand in square brackets, D forms with d. Groups on a side chain read outwards from the residue. Primed or numbered codes have the meaning given here. No end group written: not given here. *: point of attachment. γGlu = O=C(O)[C@H](CCC(=O)[*:2])N[*:1]; αMeF = C[C@](N)(Cc1ccccc1)C(=O)O; αMeK = C[C@](N)(CCCCN)C(=O)O; Lauroyl = CCCCCCCCCCCC(=O)*; αMeS = C[C@](N)(CO)C(=O)O; PEG2′ = not defined here; Aib = CC(C)(N)C(=O)O
Value type: cAMP Primary assay EC50, n1 (nM)

H[Aib]EGS[αMeF]TSDV[αMeS]SYK([PEG2′-PEG2′-γGlu-Lauroyl])EK([PEG2′-PEG2′-γGlu-Lauroyl])EAA[αMeK]EFIAK([PEG2′-PEG2′-γGlu-Lauroyl])VVEGG-NH2 [SEQ ID NO: 467]; 19.8
H[Aib]EGS[αMeF]TSDV[αMeS]SYK([PEG2′-PEG2′-γGlu-Lauroyl])EGEAA[αMeK]K([PEG2′-PEG2′-γGlu-Lauroyl])FIAK([PEG2′-PEG2′-γGlu-Lauroyl])VVEGG-NH2 [SEQ ID NO: 470]; 20
H[Aib]EGS[αMeF]TSDK([PEG2′-PEG2′-γGlu-Lauroyl])SSYLEGEAA[αMeK]K([PEG2′-PEG2′-γGlu-Lauroyl])FIAFK([PEG2′-PEG2′-γGlu-Lauroyl])VEGG-NH2 [SEQ ID NO: 474]; 19.9
H[Aib]EGS[αMeF]TSDVSK([PEG2′-PEG2′-γGlu-Lauroyl])YLEGEAA[αMeK]K([PEG2′-PEG2′-γGlu-Lauroyl])FIK([PEG2′-PEG2′-γGlu-Lauroyl])FVVEGG-NH2 [SEQ ID NO: 446]; 19.7
H[Aib]EGS[αMeF]TSDK([PEG2′-PEG2′-γGlu-Lauroyl])SSYLEGK([PEG2′-PEG2′-γGlu-Lauroyl])AA[αMeK]EFIK([PEG2′-PEG2′-γGlu-Lauroyl])FVVEGG-NH2 [SEQ ID NO: 440]; 19.7
H[Aib]EGS[αMeF]TSDVSK([PEG2′-PEG2′-γGlu-Lauroyl])YLEK([PEG2′-PEG2′-γGlu-Lauroyl])EAA[αMeK]EFIAFK([PEG2′-PEG2′-γGlu-Lauroyl])VEGG-NH2 [SEQ ID NO: 475]; 19.5
H[Aib]EGS[αMeF]TSDVSK([PEG2′-PEG2′-γGlu-Lauroyl])YLEGEAA[αMeK]K([PEG2′-PEG2′-γGlu-Lauroyl])FIAFK([PEG2′-PEG2′-γGlu-Lauroyl])VEGG-NH2 [SEQ ID NO: 478]; 19.8

Every entry's value here was drawn from patent US20200079833A1.
